Cited source: patent US20150030540A1

target: tau (Homo sapiens); construct: Native forms of tau (various isoforms, hyperphosphorylated) and amyloid aggregates are present in brain sections and therefore preferred for compound testing; test: KD (tau) binding; settings: read-out: KD (tau)
Sequence (P10636 623-758 limits assumed): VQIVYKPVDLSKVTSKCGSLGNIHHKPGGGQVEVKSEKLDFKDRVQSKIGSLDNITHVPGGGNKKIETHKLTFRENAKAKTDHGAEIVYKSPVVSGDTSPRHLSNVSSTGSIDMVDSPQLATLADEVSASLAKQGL
pKd: −log10 of the molar value.
reported-endpoint: pKd

1. Fc1ccc(-c2ccc3c(c2)[nH]c2ccncc23)cn1; 7.82
2. FCCc1ccc2c(c1)[nH]c1ccncc12 [T805, 7-(2-Fluoroethyl)-5H-pyrido[4,3-b]indole]; 7.49

---

target: UniProt:P22303
Sequence (P22303 32-614): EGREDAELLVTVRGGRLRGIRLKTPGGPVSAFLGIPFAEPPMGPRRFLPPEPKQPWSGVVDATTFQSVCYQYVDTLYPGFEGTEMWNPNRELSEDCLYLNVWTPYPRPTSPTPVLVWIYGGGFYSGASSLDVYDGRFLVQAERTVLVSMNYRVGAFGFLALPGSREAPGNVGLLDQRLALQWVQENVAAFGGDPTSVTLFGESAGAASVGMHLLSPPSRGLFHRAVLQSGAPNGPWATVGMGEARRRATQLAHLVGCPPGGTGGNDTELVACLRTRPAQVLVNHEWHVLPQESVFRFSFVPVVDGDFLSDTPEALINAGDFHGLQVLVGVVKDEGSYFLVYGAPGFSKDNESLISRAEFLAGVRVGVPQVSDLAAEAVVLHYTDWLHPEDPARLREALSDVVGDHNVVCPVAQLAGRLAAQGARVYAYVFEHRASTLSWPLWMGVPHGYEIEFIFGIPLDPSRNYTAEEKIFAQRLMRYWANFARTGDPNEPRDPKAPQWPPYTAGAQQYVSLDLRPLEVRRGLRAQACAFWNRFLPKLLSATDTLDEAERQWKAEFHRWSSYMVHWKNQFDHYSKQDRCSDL
reported-endpoint: IC50 (µM)

1) Fc1ccc(-c2ccc3c(c2)[nH]c2ccncc23)cn1 [T807]; 6
2) FCCCc1ccc2c(c1)[nH]c1ccncc12 [T794]; 5

---

Documented background (normal brain 32566) PSL/mm2 across a set of compounds
test: background in normal brain; format: binding
reported-endpoint: background (normal brain 32566) PSL/mm2 (PSL/mm2)

1. Cc1cnc2c(c1)[nH]c1cc(OCCF)ccc12 [T703]; 15
2. Fc1ccc(-c2ccc3c(c2)[nH]c2ccncc23)cn1 [T807]; 61
3. FCCc1ccc2c(c1)[nH]c1ccncc12 [T805, 7-(2-Fluoroethyl)-5H-pyrido[4,3-b]indole]; 49
4. FCCCc1ccc2c(c1)[nH]c1ccncc12 [T794]; 97

---

test: Brain uptake in rats and mice; format: in vivo
reported-endpoint: Brain uptake

1) Cc1cnc2c(c1)[nH]c1cc(OCCF)ccc12; Yes

---

Target: MAO-A (Homo sapiens)
Sequence (P21397 1-527): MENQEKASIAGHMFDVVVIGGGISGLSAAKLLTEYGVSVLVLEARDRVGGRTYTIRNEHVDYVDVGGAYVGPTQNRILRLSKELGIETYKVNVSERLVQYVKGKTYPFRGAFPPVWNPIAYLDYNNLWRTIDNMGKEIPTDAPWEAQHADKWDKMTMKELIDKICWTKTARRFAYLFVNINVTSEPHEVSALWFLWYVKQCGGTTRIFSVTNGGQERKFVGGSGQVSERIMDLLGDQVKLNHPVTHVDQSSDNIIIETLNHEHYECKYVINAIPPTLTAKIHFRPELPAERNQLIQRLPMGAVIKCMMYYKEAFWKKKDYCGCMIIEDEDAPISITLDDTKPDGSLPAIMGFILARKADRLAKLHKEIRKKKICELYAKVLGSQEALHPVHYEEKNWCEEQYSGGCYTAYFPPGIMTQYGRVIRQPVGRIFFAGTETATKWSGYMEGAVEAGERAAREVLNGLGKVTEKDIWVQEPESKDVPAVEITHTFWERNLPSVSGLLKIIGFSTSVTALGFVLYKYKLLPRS
Assay: MAO inhibition, MAO-A
Type: biochemical
Documented inhibition at 1 µM across a set of compounds
reported-endpoint: inhibition at 1 µM

1) Cc1cnc2c(c1)[nH]c1cc(OCCF)ccc12; 16%
2) FCCCc1ccc2c(c1)[nH]c1ccncc12; 19%
3) Fc1ccc(-c2ccc3c(c2)[nH]c2ccncc23)cn1; 0%
4) FCCc1ccc2c(c1)[nH]c1ccncc12 [T805, 7-(2-Fluoroethyl)-5H-pyrido[4,3-b]indole]; 0%

---

target: tau (Homo sapiens); construct: Native forms of tau (various isoforms, hyperphosphorylated) and amyloid aggregates are present in brain sections and therefore preferred for compound testing; assay: KD (tau) binding; settings: FIG. 2 legend, [18F] tracer; read-out: KD
pKd: −log10 of the molar value.
reported-endpoint: pKd

1. FCCCc1ccc2c(c1)[nH]c1ccncc12 [T794]; 7.52
